Test system: U2OS
test-name: Multiplex assay against U2OS
Type: toxicity, cell-based
run-conditions: human, 48 h, 1 µM, compound concentration 1 uM, replicate 2
Below is a list of entries, each paired with its recorded Population Membrane Permeable-Phenotype (%) value.
readout: Population Membrane Permeable-Phenotype (%)

[
  {
    "compound": "CNc1oc(-c2cccc3ccccc23)nc1C#N",
    "unit-text": "%",
    "val": 1
  },
  {
    "compound": "O=C(O)c1ccc2cc(-c3ccc(O)c(C45CC6CC(CC(C6)C4)C5)c3)ccc2c1 [O-DEMETHYLATED ADAPALENE]",
    "unit-text": "%",
    "val": 10
  },
  {
    "compound": "COc1cc2c(NC3CCN(C(C)C)CC3)nc(N3CCC(F)(F)CC3)nc2cc1OCCCN1CCCC1",
    "unit-text": "%",
    "val": 2
  },
  {
    "compound": "Cc1nc(Cc2cccc(C(F)(F)F)c2)sc1-c1ccc(C(N)=O)nc1 [TP-024n]",
    "unit-text": "%",
    "val": 3
  },
  {
    "compound": "Cl.Cl.Nc1ncnc2c1c(-c1cccc(OCc3ccccc3)c1)cn2[C@H]1C[C@@H](CN2CCC2)C1",
    "unit-text": "%",
    "val": 12
  }
]
